- assay-protocol: Ussing-chamber permeability across excised mouse intestinal segments
- Format: in vitro ADME, mice
- run-parameters: DSS-treated mice (7 days); 1 mg/ml mucosal side, pH 7.4, 37°C

{"columns": ["compound-structure", "Peff, Colon (mean ± SD) (×10⁻⁶ cm/s)"],
 "data": [
  ["CCCCc1nc(Cl)c(CO)n1Cc1ccc(-c2ccccc2-c2nn[nH]n2)cc1", 5.77],
  ["CCOc1nc2cccc(C(=O)O)c2n1Cc1ccc(-c2ccccc2-c2nnn[nH]2)cc1", 5.94],
  ["CCCCc1ncc(CO)n1Cc1ccc(-c2ccccc2-c2nn[nH]n2)cc1", 2.66]
]}

Just for reference, paper PMC3163034 is where these values come from.
